Data credit: ChEMBL document CHEMBL1153596

Target: Mu-type opioid receptor (Homo sapiens)
Sequence (P35372 whole entry): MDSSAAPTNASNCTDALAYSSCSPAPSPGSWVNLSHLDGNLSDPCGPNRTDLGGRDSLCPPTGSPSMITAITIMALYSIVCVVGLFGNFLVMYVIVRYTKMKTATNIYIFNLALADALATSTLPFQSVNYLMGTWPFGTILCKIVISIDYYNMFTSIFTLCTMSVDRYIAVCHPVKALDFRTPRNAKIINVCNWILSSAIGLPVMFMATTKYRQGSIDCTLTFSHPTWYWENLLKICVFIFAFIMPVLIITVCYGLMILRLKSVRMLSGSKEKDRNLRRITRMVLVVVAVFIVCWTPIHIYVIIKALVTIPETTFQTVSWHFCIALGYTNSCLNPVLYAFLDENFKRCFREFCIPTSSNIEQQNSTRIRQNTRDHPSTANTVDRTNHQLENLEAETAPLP
MEASUREMENT_LABEL: Ki (nM)
One number for each entry, in nM.

Record excerpt, results attached:
>  <TEST_SMILES>
CN(C)C(=O)O[C@@H]1CC[C@@]2(O)[C@H]3Cc4ccc(O)c5c4[C@@]2(CCN3CC2CC2)[C@H]1O5

>  <TARGET_OR_TEST_SYSTEM>
Mu-type opioid receptor (Homo sapiens)

>  <MEASUREMENT_LABEL>
Ki

>  <MEASURED_RESULT>
1.85

$$$$
>  <TEST_SMILES>
CS(=O)(=O)O[C@@H]1CC[C@@]2(O)[C@H]3Cc4ccc(O)c5c4[C@@]2(CCN3CC2CC2)[C@H]1O5

>  <TARGET_OR_TEST_SYSTEM>
Mu-type opioid receptor (Homo sapiens)

>  <MEASUREMENT_LABEL>
Ki

>  <MEASURED_RESULT>
1.11

$$$$
>  <TEST_SMILES>
O=C(O[C@@H]1CC[C@@]2(O)[C@H]3Cc4ccc(O)c5c4[C@@]2(CCN3CC2CC2)[C@H]1O5)N(c1ccccc1)c1ccccc1

>  <TARGET_OR_TEST_SYSTEM>
Mu-type opioid receptor (Homo sapiens)

>  <MEASUREMENT_LABEL>
Ki

>  <MEASURED_RESULT>
0.56

$$$$

Q: Looking for the measured Ki of `Cc1ccc(S(=O)(=O)O[C@@H]2CC[C@@]3(O)[C@H]4Cc5ccc(O)c6c5[C@@]3(CCN4CC3CC3)[C@H]2O6)cc1` , can you help?
Ans: 0.79
